Data provenance: patent US7223759B2

Each item that follows carries a reported MIC.
- System: Escherichia coli (ATCC25922) or Staphylococcus aureus (ATCC25923)
- assay-notes: Antibacterial MIC, microdilution method in Mueller-Hinton medium
- Format: cell-based
- measurement-context: Escherichia coli, 18 h, read-out: Potency (MIC)
- Method: The antibacterial activity of the Formula I compounds was evaluated against standard bacterial strains by determining the minimal inhibitory concentration (MIC) to block growth. Each drug was assayed by the microdilution method in Mueller-Hinton medium, as recommended by the National Committee for Clinical Laboratory Standards. […] The MIC was determined as the lowest concentration of each compound that prevented bacterial growth after 18 hours of incubation at 35° C. […]

| mol-smiles | MIC |
| --- | --- |
| COc1ccc(O)c(C(=O)Nc2ccc(Nc3nc(N4C[C@H](N)C[C@H](N)C4)nc(N4C[C@H](N)C[C@H](N)C4)n3)cc2)c1 | < 64 µg/mL |
| N[C@@H]1C[C@H](N)CN(c2nc(Nc3ccc(C(=O)CC(=O)NCc4ccc5c(c4)OCO5)cc3)nc(N3C[C@H](N)C[C@H](N)C3)n2)C1 | > 64 µg/mL |
| CCCCCCCCCC(=O)Nc1ccc(Nc2nc(N3C[C@H](N)C[C@H](N)C3)nc(N3C[C@H](N)C[C@H](N)C3)n2)cc1O | < 16 µg/mL |
| CCn1c(-c2cccc(Nc3nc(N4C[C@H](N)C[C@H](N)C4)nc(N4C[C@H](N)C[C@H](N)C4)n3)c2)cc(=O)n1-c1ccccc1 | > 64 µg/mL |
| COc1cc2c(cc1Nc1nc(N3C[C@H](N)C[C@H](N)C3)nc(N3C[C@H](N)C[C@H](N)C3)n1)oc1ccccc12 | < 64 µg/mL |
| COc1ccc(NC(=O)c2ccc(O)cc2O)c(Nc2nc(N3C[C@H](N)C[C@H](N)C3)nc(N3C[C@H](N)C[C@H](N)C3)n2)c1 | > 64 µg/mL |

Moving on to the next molecule.
Fill in: Escherichia coli (ATCC25922) or Staphylococcus aureus (ATCC25923) MIC for CNC(=S)NNc1nc(N2C[C@H](N)C[C@H](N)C2)nc(N2C[C@H](N)C[C@H](N)C2)n1 = > 64 µg/mL

----------
- Tested on: Escherichia coli (ATCC25922) or Staphylococcus aureus (ATCC25923)
- assay-notes: Antibacterial MIC, microdilution method in Mueller-Hinton medium
- Type: cell-based
- measurement-context: Escherichia coli, 18 h, MIC in E. coli or S. aureus; two-fold serial dilutions 64 to 0.5 μg/ml in duplicate; 18 hours of incubation at 35° C.; read-out: Potency (MIC)
measured-metric: MIC

// worked examples, MIC included
| compound | MIC |
| --- | --- |
| Cc1ccc(S(=O)(=O)N(Cc2ccccc2)c2ccc(Nc3nc(N4CCNCC4)nc(N4C[C@H](N)C[C@H](N)C4)n3)cc2O)cc1 | < 64 µg/mL |
| Cl.N[C@@H]1C[C@H](N)CN(c2nc(N3C[C@H](N)C[C@H](N)C3)nc(-n3cnc4ccccc43)n2)C1 | > 64 µg/mL |
| Cc1cccc(NC(=O)c2ccc(Nc3nc(N4CCCCC4)nc(N4CCCCC4)n3)cc2O)n1.Cl | < 64 µg/mL |

Given the compound Cc1ccc(S(=O)(=O)N(Cc2ccccc2)c2ccc(Nc3nc(C4CCCCC4)nc(N4CCCCC4)n3)cc2O)cc1.Cl and test system Escherichia coli (ATCC25922) or Staphylococcus aureus (ATCC25923), the measured MIC is < 64 µg/mL

// returns MIC for N[C@@H]1C[C@H](N)CN(c2nc(Nc3ccc(Nc4ccccc4)cc3)nc(N3C[C@H](N)C[C@H](N)C3)n2)C1 with Escherichia coli (ATCC25922) or Staphylococcus aureus (ATCC25923); value = < 64 µg/mL

The reported Escherichia coli (ATCC25922) or Staphylococcus aureus (ATCC25923) MIC of Cl.N[C@@H]1C[C@H](N)CN(c2nc(N3C[C@H](N)C[C@H](N)C3)nc(N3CCc4cc(Br)ccc43)n2)C1 is < 64 µg/mL

// returns MIC for CN(Cc1cccc2ccccc12)c1nc(N2CCCCC2)nc(N2CCCCC2)n1.Cl with Escherichia coli (ATCC25922) or Staphylococcus aureus (ATCC25923); value = > 64 µg/mL

Record Cl.NCCN(CCN)c1nc(Nc2ccc(C(=O)Oc3ccccc3)c([N+](=O)[O-])c2)nc(N2CCCCC2)n1 ; system Escherichia coli (ATCC25922) or Staphylococcus aureus (ATCC25923); MIC = < 64 µg/mL

Case CCOC(=O)c1ccc(Nc2nc(N3C[C@H](N)C[C@H](N)C3)nc(N3C[C@H](N)C[C@H](N)C3)n2)cc1 , Escherichia coli (ATCC25922) or Staphylococcus aureus (ATCC25923), MIC recorded as > 64 µg/mL

MIC value, target or system Escherichia coli (ATCC25922) or Staphylococcus aureus (ATCC25923), for Cl.Nc1ccc(S(=O)(=O)Nc2ccc(Nc3nc(N4CCCCC4)nc(N4CCCCC4)n3)cc2O)cc1 : < 64 µg/mL

Measured MIC for this entry Cc1ccc(S(=O)(=O)N(C)C)cc1Nc1nc(N2C[C@H](N)C[C@H](N)C2)nc(N2C[C@H](N)C[C@H](N)C2)n1 on Escherichia coli (ATCC25922) or Staphylococcus aureus (ATCC25923): > 64 µg/mL

Record Cl.N[C@@H]1CC(c2nc(Nc3ccc(C(=O)CC(=O)Nc4ccccc4N4CCOCC4)cc3)nc(N3C[C@H](N)C[C@H](N)C3)n2)C[C@H](N)C1 (stereo partly drawn) ; system Escherichia coli (ATCC25922) or Staphylococcus aureus (ATCC25923); MIC = < 16 µg/mL

The compound COc1ccc(NC(C)=O)cc1Nc1nc(N2C[C@H](N)C[C@H](N)C2)nc(N2C[C@H](N)C[C@H](N)C2)n1 , when measured on Escherichia coli (ATCC25922) or Staphylococcus aureus (ATCC25923), yielded MIC of > 64 µg/mL

Value (MIC, Escherichia coli (ATCC25922) or Staphylococcus aureus (ATCC25923)) for record N[C@@H]1C[C@H](N)CN(c2nc(Nc3ccc(NC(=O)Cc4ccccc4)c(O)c3)nc(N3C[C@H](N)C[C@H](N)C3)n2)C1 = < 64 µg/mL

MIC of CCOc1ccc(C(=O)Nc2ccc(Nc3nc(N4CCCCC4)nc(N4CCCCC4)n3)cc2O)cc1.Cl , assay on Escherichia coli (ATCC25922) or Staphylococcus aureus (ATCC25923), is < 16 µg/mL
